molecular target: T1, antibody G1 Fab fragment; test: Biacore competition: 10 µM peptide with 50 nM G1 Fab over human α-CGRP chip
T1 construct: Fab expressed in E. coli; purified on Ni-NTA, tag not described
T1 sequence (VH, as listed by the source, chain 1 of 2): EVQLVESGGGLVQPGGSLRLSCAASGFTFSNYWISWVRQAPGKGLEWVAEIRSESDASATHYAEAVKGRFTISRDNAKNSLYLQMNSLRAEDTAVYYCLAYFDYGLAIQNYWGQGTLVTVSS
T1 sequence (VL, as listed by the source, chain 2 of 2): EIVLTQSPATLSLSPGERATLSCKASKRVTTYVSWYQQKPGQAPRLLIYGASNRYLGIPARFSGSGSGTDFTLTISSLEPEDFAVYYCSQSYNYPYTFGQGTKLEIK
Ends that are not written are not given here.
outcomeMeasure: percentage of binding blocked

Lookup result for ACNTATCVTHRLAGLLSRSGGMVKSNFVPTNVGSKAF-NH2 (cysteine pairing not given here, also called human β (1-37); 1-37 of β-CGRP (WT)) [human β-CGRP (1-37)] ; measured percentage of binding blocked: 100%

Lookup result for VTHRLAGLLSRSGGVVKNNFVPTNVGSKAF-NH2 [human α-CGRP 8-37] ; measured percentage of binding blocked: 100%

Lookup result for ACDTATCVTHRLAGLLSRSGGVVKNNFVPTNVGSKAF-NH2 (cysteine pairing not given here, also called full length human α-CGRP) [human α-CGRP 1-37 (WT)] ; measured percentage of binding blocked: 100%

Lookup result for NFVPTNVGSKAF-NH2 [human α-CGRP 26-37] ; measured percentage of binding blocked: 100%

Lookup result for ACDTATCVTHRLAGLLSRSGGVVKNNFVPTNVGSKA-OH (ends and bridges not checked, not C-terminally amidated; also called 1-36 (not amidated at the C-terminus)) [human α-CGRP 1-36-COOH] ; measured percentage of binding blocked: ~40%

Lookup result for SCNTATCVTHRLAGLLSRSGGVVKDNFVPTNVGSKAF-NH2 (cysteine pairing not given here, also called rat β (1-37)) [rat β-CGRP (1-37)] ; measured percentage of binding blocked: 100%
